Attribution: patent US20120172293A1

Here the recorded GBA EC50 Ratio ([35S]GTPγS binding) is given for each entry.
Molecular target: T1, human Y2 receptor (human, UniProt P49146 1-381)
T1 sequence (looked up): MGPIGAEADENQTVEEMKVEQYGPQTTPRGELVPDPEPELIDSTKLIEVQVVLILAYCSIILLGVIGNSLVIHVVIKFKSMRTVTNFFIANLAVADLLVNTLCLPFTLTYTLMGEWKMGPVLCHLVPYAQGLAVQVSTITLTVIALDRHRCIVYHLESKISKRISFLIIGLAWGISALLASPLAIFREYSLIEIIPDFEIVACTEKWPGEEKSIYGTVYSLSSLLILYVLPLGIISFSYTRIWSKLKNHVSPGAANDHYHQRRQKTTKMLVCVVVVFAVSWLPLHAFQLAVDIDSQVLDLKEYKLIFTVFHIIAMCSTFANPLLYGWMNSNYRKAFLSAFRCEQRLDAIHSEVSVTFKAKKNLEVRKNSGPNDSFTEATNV
Experiment: cell-based or functional assay
Non-standard residues stand in square brackets, D forms with d. No end group written: not given here. Cha = N[C@@H](CC1CCCCC1)C(=O)O; 4Amb = NCc1ccc(C(=O)O)cc1; Abu = CC[C@H](N)C(=O)O; Aib = CC(C)(N)C(=O)O

Ac-S[dP]RY[Cha][Aib]NK[Aib]TRQR[Cha]-NH2 (SMILES CC(=O)N[C@@H](CO)C(=O)N1CCC[C@@H]1C(=O)N[C@@H](CCCNC(=N)N)C(=O)N[C@@H](Cc1ccc(O)cc1)C(=O)N[C@@H](CC1CCCCC1)C(=O)NC(C)(C)C(=O)N[C@@H](CC(N)=O)C(=O)N[C@@H](CCCCN)C(=O)NC(C)(C)C(=O)N[C@H](C(=O)N[C@@H](CCCNC(=N)N)C(=O)N[C@@H](CCC(N)=O)C(=O)N[C@@H](CCCNC(=N)N)C(=O)N[C@@H](CC1CCCCC1)C(N)=O)[C@@H](C)O, also called compound No. 346) [Ac-[D-Pro24, Tyr26, Cha27,36, Aib28,31, Lys30]-PYY(23-36)] :: 1.3 EC50 compound/EC50 PYY(3-36)

Form field: reported GBA EC50 Ratio ([35S]GTPγS binding) of {((1S)-5-amino-1-carboxypentyl)carbamoyl}-S[dP]RH[Cha][Cha]NL[Aib]TRQR[Cha]-NH2 (calculated mass 1980.2 fits the name; also called compound No. 323) [[(1S)-5-Amino-1-carboxypentyl]carbamoyl-[D-Pro24, Cha27,28,36, Aib31]-PYY(23-36)]
0.95 EC50 compound/EC50 PYY(3-36)

Form field: reported GBA EC50 Ratio ([35S]GTPγS binding) of [4Amb]RAYINLI[Abu]RQRY-NH2 (N-terminus assumed; SMILES CC[C@H](NC(=O)[C@@H](NC(=O)[C@H](CC(C)C)NC(=O)[C@H](CC(N)=O)NC(=O)[C@@H](NC(=O)[C@H](Cc1ccc(O)cc1)NC(=O)[C@H](C)NC(=O)[C@H](CCCNC(=N)N)NC(=O)c1ccc(CN)cc1)[C@@H](C)CC)[C@@H](C)CC)C(=O)N[C@@H](CCCNC(=N)N)C(=O)N[C@@H](CCC(N)=O)C(=O)N[C@@H](CCCNC(=N)N)C(=O)N[C@@H](Cc1ccc(O)cc1)C(N)=O, also called compound No. 354) [4-Aminomethylbenzoyl-[Ala26, ILe28,31, Abu32]-PYY(25-36)]
33 EC50 compound/EC50 PYY(3-36)
